test: TLR3 IRF3 reporter activation blockers – cell-based, poly I:C stimulus, luciferase, 10K MLSCN set, primary screen (AID 602277); settings: HEK293-TLR3 RL24 IRF3 luciferase reporter, at 10 µM, stronger effect = higher value
Decision: inhibition compared against -10%; not below it gives met, below it gives not met.

> print(dat)
                                   compound  discrete.label
1             COc1ccc(OCCCC(=O)Nc2nncs2)cc1             met
2  COC(=O)C(C)Sc1nc2c(c(=O)n1-c1ccccc1)SCC2 (stereo unspecified)             met
3    CCn1c(SCC(=O)c2ccc(C)cc2)nnc1-c1ccoc1C         not met
4  COc1ccccc1CN1C(=S)SC(C)(C)C1NO (stereo unspecified)             met
5  O=C(CNCC1CCCO1)Nc1ccccc1-n1cccc1 (stereo unspecified)             met
6         CCc1ccccc1NC(=O)c1cnc2n(c1=O)CCS2         not met

---

assay: reduction of polyQ htt aggregates in cells – imaging, exon1htt(103Q)mCFP cells, high-content imaging, primary screen (AID 483); settings: exon1htt(103Q)mCFP cell line, aggregate imaging, at 2 µM; stronger effect = higher value;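 also: compound exposure lasted 3 days before fixation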
Recorded Metric: inhibition of aggregation (%)

> print(dat)
                                    compound  reading
 1  CCn1c(C)c(CCC(=O)O)c(=O)n2nc(-c3ccccc3OC)cc12        0
 2  COc1ccc(C(=O)Nc2ccc(S(=O)(=O)Nc3onc(C)c3C)cc2)cc1     -4.3
 3  CCOc1ccc(CN2C(=O)c3ccccc3C2C(=O)NCc2cccnc2)cc1 (configuration not stated)     -9.9
 4  COc1ccc(OC)c(C2C(C(=O)Nc3cccnc3)=C(C)NC3=C2C(=O)CCC3)c1 (configuration not stated)      2.3
 5  Cc1ccc(N2C(=O)c3ccccc3C2Nc2cccnc2)nc1 (configuration not stated)      2.4
 6  COc1ccc(CN(Cc2cc3cc4c(cc3[nH]c2=O)OCO4)C(=O)NC2CCCCC2)cc1     38.7
 7  CC(=O)c1cc(-c2ccc(F)cc2)n(CCC(=O)Nc2cc(C)[nH]n2)c1C     -4.1
 8  O=C(c1ccc(-c2ccccc2)cc1)N1CCC(C(=O)N2CCCC2)CC1      0.5
 9  Cn1c(COc2ccc(Cl)cc2)nnc1SCC(=O)NC1CCCCC1     19.6
10  Cc1ccc(C)c(N2CCN(C(=O)CCCn3c(=S)[nH]c4cc5c(cc4c3=O)OCO5)CC2)c1     -3.8
11  COc1cccc(-c2nc(CS(=O)CC(=O)NCCCOC(C)C)c(C)o2)c1 (configuration not stated)      5.9
12     CCc1c(C)nc2ncnn2c1NCCc1ccc(OC)c(OC)c1       -8
13  O=C(CN1CCN(c2ccccn2)CC1)N1c2ccccc2CCc2ccccc21     -0.5
14  CC(C)CNS(=O)(=O)c1ccc(CCC(=O)N2CCOCC2)cc1       -3
15  c1ccc(Cn2nnnc2C(c2cccs2)N2CCSCC2)cc1 (configuration not stated)     -0.3
16   O=C1c2ccccc2CN1CCNS(=O)(=O)c1ccc(Cl)cc1     -2.3
17  CCCC(=O)Nc1ccccc1-c1nnn(CC(=O)Nc2ccc(OCC)cc2)n1     -6.8
18  N#CC(C(=O)c1ccco1)c1ccccn1 (configuration not stated)     -5.3
19  CCOC(=O)C1CCN(c2c(N3CCCC(C(=O)OCC)C3)c(=O)c2=O)CC1 (configuration not stated)     -6.4
20  CS(=O)(=O)N1CCCC(C(=O)N2CCOCC2)C1 (configuration not stated)      9.8
21  Cn1c(=O)c(=O)n(C)c2cc(S(=O)(=O)N3CCN(c4cccc(C(F)(F)F)c4)CC3)ccc21    -18.8
22  CC1Cc2nc(SCC(=O)Nc3ccc(F)cc3F)n(C)c(=O)c2S1 (configuration not stated)     -7.8

Reference for the values: PubChem BioAssay
